Reported Selectivity Ki(hCatS)/Ki(hCatK) by item:
# system: human cathepsin S (CatS) (Homo sapiens (Human))
# Sequence (P25774 115-331): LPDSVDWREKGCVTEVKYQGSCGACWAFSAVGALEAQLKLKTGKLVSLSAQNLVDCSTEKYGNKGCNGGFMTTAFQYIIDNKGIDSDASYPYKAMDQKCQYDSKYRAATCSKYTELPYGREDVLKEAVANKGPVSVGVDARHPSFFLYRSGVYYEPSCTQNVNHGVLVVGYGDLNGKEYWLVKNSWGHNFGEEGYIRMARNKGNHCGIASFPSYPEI
# assay.details: CatS functional enzyme assay
# Assay type: biochemical
# particulars: ratio Ki(hCatS)/Ki(hCatK)

>  <compound>
COc1cnnc(-c2ccc(C(=O)N[C@H](C(=O)N3C[C@H](Cl)[C@H]4OCC(=O)[C@H]43)C3CCCCC3)s2)c1 [Example 72]

>  <system>
human cathepsin S (CatS) (Homo sapiens (Human))

>  <Selectivity Ki(hCatS)/Ki(hCatK)>
1.4

$$$$
>  <compound>
O=C(N[C@H](C(=O)N1C[C@H](Cl)[C@H]2OCC(=O)[C@H]21)C1CCCCC1)c1ccc(-c2cccnc2)s1 [Example 2]

>  <system>
human cathepsin S (CatS) (Homo sapiens (Human))

>  <Selectivity Ki(hCatS)/Ki(hCatK)>
23.0

$$$$
>  <compound>
Cc1ncc(-c2ccc(C(=O)N[C@H](C(=O)N3C[C@H](Cl)[C@H]4OCC(=O)[C@H]43)C3CCCCC3)s2)cn1 [Example 30]

>  <system>
human cathepsin S (CatS) (Homo sapiens (Human))

>  <Selectivity Ki(hCatS)/Ki(hCatK)>
7.2

$$$$
>  <compound>
O=C(N[C@H](C(=O)N1C[C@H](Cl)[C@H]2OCC(=O)[C@H]21)C1CCCCC1)c1ccc(-c2ccc[n+]([O-])c2)s1 [Example 70]

>  <system>
human cathepsin S (CatS) (Homo sapiens (Human))

>  <Selectivity Ki(hCatS)/Ki(hCatK)>
1.5

$$$$
>  <compound>
O=C(N[C@H](C(=O)N1C[C@H](Cl)[C@H]2OCC(=O)[C@H]21)C1CCCCC1)c1sc(-c2ccnnc2)cc1F [Example 60]

>  <system>
human cathepsin S (CatS) (Homo sapiens (Human))

>  <Selectivity Ki(hCatS)/Ki(hCatK)>
2.3

$$$$
>  <compound>
O=C(N[C@H](C(=O)N1C[C@H](Cl)[C@H]2OCC(=O)[C@H]21)C1CCCCC1)c1ccc(-c2cc(C3CC3)cnn2)s1 [Example 74]

>  <system>
human cathepsin S (CatS) (Homo sapiens (Human))

>  <Selectivity Ki(hCatS)/Ki(hCatK)>
0.3

$$$$
>  <compound>
O=C(N[C@H](C(=O)N1C[C@H](Cl)[C@H]2OCC(=O)[C@H]21)C1CCCCC1)c1ccc(-c2cccnn2)s1 [Example 6]

>  <system>
human cathepsin S (CatS) (Homo sapiens (Human))

>  <Selectivity Ki(hCatS)/Ki(hCatK)>
5.5

$$$$
>  <compound>
O=C(N[C@H](C(=O)N1C[C@H](Cl)[C@H]2OCC(=O)[C@H]21)C1CCCCC1)c1ccc(-c2cnccn2)s1 [Example 4]

>  <system>
human cathepsin S (CatS) (Homo sapiens (Human))

>  <Selectivity Ki(hCatS)/Ki(hCatK)>
13.1

$$$$
>  <compound>
O=C(N[C@H](C(=O)N1C[C@H](Cl)[C@H]2OCC(=O)[C@H]21)C1CCCCC1)c1ccc(-c2ccnnc2)s1 [Example 8]

>  <system>
human cathepsin S (CatS) (Homo sapiens (Human))

>  <Selectivity Ki(hCatS)/Ki(hCatK)>
1.2

$$$$
>  <compound>
Cc1cc(-c2ccc(C(=O)N[C@H](C(=O)N3C[C@H](Cl)[C@H]4OCC(=O)[C@H]43)C3CCCCC3)s2)c(C)nn1 [Example 89]

>  <system>
human cathepsin S (CatS) (Homo sapiens (Human))

>  <Selectivity Ki(hCatS)/Ki(hCatK)>
0.7

$$$$
>  <compound>
Cc1nccc(-c2cnc(C(=O)N[C@H](C(=O)N3C[C@H](Cl)[C@H]4OCC(=O)[C@H]43)C3CCCCC3)s2)n1 [Example 32]

>  <system>
human cathepsin S (CatS) (Homo sapiens (Human))

>  <Selectivity Ki(hCatS)/Ki(hCatK)>
15.9

$$$$
>  <compound>
O=C(N[C@H](C(=O)N1C[C@H](Cl)[C@H]2OCC(=O)[C@H]21)C1CCCCC1)c1ccc(-c2ccccn2)s1 [Example 1]

>  <system>
human cathepsin S (CatS) (Homo sapiens (Human))

>  <Selectivity Ki(hCatS)/Ki(hCatK)>
28.7

$$$$
>  <compound>
O=C(N[C@H](C(=O)N1C[C@H](Cl)[C@H]2OCC(=O)[C@H]21)C1CCCCC1)c1cc(F)c(-c2cccnn2)s1 [Example 54]

>  <system>
human cathepsin S (CatS) (Homo sapiens (Human))

>  <Selectivity Ki(hCatS)/Ki(hCatK)>
25.1

$$$$
